# assayed-target: TYK2-JH2 domain (Homo sapiens)
# Construct: IC50 on JH2 domain activity (nM)
# experiment-description: Binding activity test for JH2 domain of TYK2 (Tb-antibody/tracer FRET)
pIC50: −log10 of the molar value.
Decision: pIC50 >= 9 yields 1 (yes), all other cases yield 0 (no).

Inquiry: State whether the measured pIC50 reaches 9, counting equality as reaching it, for [2H]C([2H])([2H])NC(=O)c1cnc(NC(=O)C2CC2)cc1Nc1ccn2cnc(CC)c2c1OC [Example 57]
Reply text: 0 (no)

Inquiry: State whether the measured pIC50 reaches 9, counting equality as reaching it, for [2H]C([2H])([2H])NC(=O)c1cnc(NC(=O)C2CC2)cc1Nc1cn(C)c2ncn([C@@H](C)C(F)(F)F)c(=O)c12 (single isomer, unassigned) [Example 234B]
Reply text: 0 (no)

Inquiry: State whether the measured pIC50 reaches 9, counting equality as reaching it, for [2H]C([2H])([2H])NC(=O)c1cnc(NC(=O)C2CC2)cc1Nc1ccn2ncc(C(C)C#N)c2c1OC (stereo not shown) [Example 251]
Reply text: 1 (yes)

----------
# assayed-target: TYK2-JH2 domain (Homo sapiens, UniProt P29597)
# Construct: IC50 on JH2 domain activity (nM)
# Sequence (P29597 589-875 limits assumed): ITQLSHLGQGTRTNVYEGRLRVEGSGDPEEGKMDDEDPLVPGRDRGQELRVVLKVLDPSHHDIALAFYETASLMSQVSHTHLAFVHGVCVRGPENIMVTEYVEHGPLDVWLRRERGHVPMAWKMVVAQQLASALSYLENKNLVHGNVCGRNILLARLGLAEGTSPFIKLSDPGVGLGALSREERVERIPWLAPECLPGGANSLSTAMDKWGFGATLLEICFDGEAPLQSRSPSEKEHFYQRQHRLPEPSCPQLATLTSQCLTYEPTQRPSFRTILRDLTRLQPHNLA
# experiment-description: Binding activity test for JH2 domain of TYK2 (Tb-antibody/tracer FRET)
# test-conditions: ratio JAK1-JH2 IC50 / TYK2-JH2 IC50
# Description: Binding Activity Test for […] Domain of JAK1 and TYK2 The compounds are prepared in DMSO for 200× top dose, then serial dilute it with 27-fold for 3 more points. Add 8 μL/well in echo source plate, echo will add 75 nL/well with 3-fold serial dilution for 11 points in assay plate. 75 nL DMSO for high control and low control. […] For low control, add 5 μL/well assay buffer. […] Read by envision in FRET mode. The Luminescence value was recorded by a multi-label reader Envision (PerkinElmer).
measure: JAK1/TYK2 selectivity
The response must contain the number and no unit.

Before answering, review these 2 worked examples.
[2H]C([2H])([2H])NC(=O)c1cnc(NC(=O)C2CC2)cc1Nc1ncc2cnn(CC)c2c1OC	67.1
[2H]C([2H])([2H])NC(=O)c1cnc(NC(=O)C2CC2)cc1Nc1ccc2cnn(CC)c2c1OC	34.6

Switching to the query record.
Inquiry: Using the record for [2H]C([2H])([2H])NC(=O)c1cnc(NC(=O)C2CC2)cc1Nc1cn(CC)c2ncn([C@H](C)C(F)(F)F)c(=O)c12 (single isomer, unassigned) [Example 254A] , report its JAK1/TYK2 selectivity.
Reply text: 50.81

----------
# experiment-description: Plasma protein binding by equilibrium dialysis
# Assay type: in vitro ADME
# test-conditions: human plasma, equilibrium dialysis 5 hours at 37° C.; read-out: % Bound (human) (converted)
Here the recorded fraction unbound at 5 h is given for each entry.
The response must contain the number and no unit.

[2H]C([2H])([2H])NC(=O)c1cnc(NC(=O)C2CC2)cc1Nc1ccn2ncc(COC)c2c1OC [Example 226]	0.126
[2H]C([2H])([2H])NC(=O)c1cnc(NC(=O)C2CC2)cc1Nc1ccn2ncc(CO)c2c1OC [Example 225]	0.346
[2H]C([2H])([2H])NC(=O)c1cnc(Nc2ccc(F)cn2)cc1Nc1nn(C)c2ccn(CC)c(=O)c12 [Example 139]	0.039
[2H]C([2H])([2H])NC(=O)c1cnc(NC(=O)C2CC2)cc1Nc1cn(C)c2ncn([C@H](C)C(F)(F)F)c(=O)c12 (single isomer, unassigned) [Example 234A]	0.123
[2H]C([2H])([2H])NC(=O)c1cnc(NC(=O)C2CC2)cc1Nc1cn(CC2CC2)c2ncn(CC)c(=O)c12 [Example 213]	0.025
[2H]C([2H])([2H])NC(=O)c1cnc(NC(=O)C2CC2)cc1Nc1ccc2cnn(CC(F)(F)F)c2c1OC [Example 129]	0.034
[2H]C([2H])([2H])NC(=O)c1cnc(NC(=O)C2CC2)cc1Nc1cn(C)c2c(F)cn(CC(F)F)c(=O)c12 [Example 158]	0.039
[2H]C([2H])([2H])NC(=O)c1cnc(NC(=O)C2CC2)cc1Nc1ccc2cn[nH]c2c1OC [Example 207]	0.039

Inquiry: Using the record for [2H]C([2H])([2H])NC(=O)c1cnc(NC(=O)C2CC2)cc1Nc1ccc2cnn(CC(F)F)c2c1OC [Example 131] , report its fraction unbound at 5 h.
Reply text: 0.046

Inquiry: Using the record for [2H]C([2H])([2H])NC(=O)c1cnc(Nc2cccc(C#N)c2)nc1Nc1cccc(-c2ncn(C)n2)c1OC [Example 19] , report its fraction unbound at 5 h.
Reply text: 0.038

Inquiry: Using the record for CNC(=O)c1cnc(NC(=O)C2CC2)cc1Nc1nn(C)c2ccn(CC(F)(F)F)c(=O)c12 [Example 52] , report its fraction unbound at 5 h.
Reply text: 0.041

Inquiry: Using the record for [2H]C([2H])([2H])NC(=O)c1cnc(NC(=O)C2CC2)cc1Nc1ccn2ncc(C#N)c2c1OC [Example 165] , report its fraction unbound at 5 h.
Reply text: 0.107

Inquiry: Using the record for [2H]C([2H])([2H])NC(=O)c1cnc(NC(=O)C2CC2)cc1Nc1nn(C)c2ccn(CC(F)(F)F)c(=O)c12 [Example 53] , report its fraction unbound at 5 h.
Reply text: 0.286

Inquiry: Using the record for [2H]C([2H])([2H])NC(=O)c1cnc(NC(=O)C2CC2)cc1Nc1ccc2cnn(CC#N)c2c1OC [Example 202] , report its fraction unbound at 5 h.
Reply text: 0.113
